Tested on: Streptococcus pyogenes SSI-9
METHOD SUMMARY: Antibacterial activity assay of bead-derived peptides (three concentrations)
Format: cell-based
Set-up: key: +++: inhibition by the 640-fold diluted peptide solution; ++: inhibition by the 160-fold diluted solution; +: inhibition by the 40-fold diluted solution; -: no inhibition
CONDITION SET: S. pyogenes, bead-derived peptide solution, three concentrations
Method: Each type of assay must be simplified and miniaturized to assess the activities of the library peptides in a 96-well format for the high-throughput screening. Next, the peptides in groups A and B were subjected to the antibacterial assay and structural determination. Three peptide concentrations were applied to evaluate the growth inhibition of S. pyogenes and determine the antibacterial activity. […] Finally, the structures of the peptides were determined. […]
Where a SMILES comes first, the peptide text is derived from it. [ ]: non-standard residue; d: D form. The star is where a group is joined. NHCH2CH2OH = OCCN*; For = O=C*
METRIC NAME: antibacterial activity

- CC(C)C[C@@H](NC(=O)[C@H](C)NC(=O)[C@H](NC(=O)[C@H](C)NC(=O)CNC(=O)[C@@H](NC=O)C(C)C)[C@H](C)O)C(=O)N[C@H](C(=O)N[C@H](CC(C)C)C(=O)N[C@@H](Cc1c[nH]c2ccccc12)C(=O)N[C@@H](C(=O)N[C@@H](Cc1c[nH]c2ccccc12)C(=O)N[C@H](CC(C)C)C(=O)N[C@@H](Cc1c[nH]c2ccccc12)C(=O)N[C@@H](C(=O)N[C@@H](Cc1c[nH]c2ccccc12)C(=O)NCCO)C(C)C)C(C)C)C(C)C [compound 102] (For-VGA[dT]A[dL]V[dL]W[dV]W[dL]W[dV]W-NHCH2CH2OH): -
- CC(C)C[C@@H](NC(=O)[C@H](Cc1c[nH]c2ccccc12)NC(=O)[C@H](NC(=O)[C@H](Cc1c[nH]c2ccccc12)NC(=O)[C@@H](CC(C)C)NC(=O)[C@@H](NC(=O)[C@H](NC(=O)[C@H](C)NC(=O)[C@H](NC(=O)[C@H](C)NC(=O)CNC(=O)[C@@H](NC=O)C(C)C)[C@H](C)O)C(C)C)C(C)C)C(C)C)C(=O)N[C@@H](Cc1c[nH]c2ccccc12)C(=O)N[C@@H](C(=O)N[C@@H](Cc1c[nH]c2ccccc12)C(=O)NCCO)C(C)C [compound 11238] (For-VGA[dT]A[dV]V[dL]W[dV]W[dL]W[dV]W-NHCH2CH2OH): -
- CC(C)C[C@@H](NC(=O)[C@H](C)NC(=O)CNC(=O)[C@@H](NC=O)C(C)C)C(=O)N[C@@H](C)C(=O)N[C@H](CC(C)C)C(=O)N[C@H](C(=O)N[C@@H](C(=O)N[C@@H](Cc1c[nH]c2ccccc12)C(=O)N[C@@H](C(=O)N[C@@H](Cc1c[nH]c2ccccc12)C(=O)N[C@H](CC(C)C)C(=O)N[C@@H](Cc1c[nH]c2ccccc12)C(=O)N[C@@H](C(=O)N[C@@H](Cc1c[nH]c2ccccc12)C(=O)NCCO)C(C)C)C(C)C)C(C)C)C(C)C [compound 4297] (For-VGA[dL]A[dL]V[dV]W[dV]W[dL]W[dV]W-NHCH2CH2OH): +
- CC(C)C[C@@H](NC(=O)[C@H](Cc1c[nH]c2ccccc12)NC(=O)[C@@H](CC(C)C)NC(=O)[C@@H](NC(=O)[C@H](NC(=O)[C@H](C)NC(=O)[C@H](NC(=O)[C@H](C)NC(=O)CNC(=O)[C@@H](NC=O)C(C)C)C(C)C)C(C)C)C(C)C)C(=O)N[C@@H](Cc1c[nH]c2ccccc12)C(=O)N[C@@H](C(=O)N[C@@H](Cc1c[nH]c2ccccc12)C(=O)N[C@@H](C(=O)N[C@@H](Cc1c[nH]c2ccccc12)C(=O)NCCO)C(C)C)[C@H](C)O [compound 79] (For-VGA[dV]A[dV]V[dL]W[dL]W[dT]W[dV]W-NHCH2CH2OH): ++
